molecular target: Human DGKα(9-727) (Homo sapiens (Human), UniProt P23743); assay: biochemical; conditions: liposome (LIPGLO) assay; Table A; read-out: DGKα LIPGLO IC50
Sequence (P23743 whole entry, looked up): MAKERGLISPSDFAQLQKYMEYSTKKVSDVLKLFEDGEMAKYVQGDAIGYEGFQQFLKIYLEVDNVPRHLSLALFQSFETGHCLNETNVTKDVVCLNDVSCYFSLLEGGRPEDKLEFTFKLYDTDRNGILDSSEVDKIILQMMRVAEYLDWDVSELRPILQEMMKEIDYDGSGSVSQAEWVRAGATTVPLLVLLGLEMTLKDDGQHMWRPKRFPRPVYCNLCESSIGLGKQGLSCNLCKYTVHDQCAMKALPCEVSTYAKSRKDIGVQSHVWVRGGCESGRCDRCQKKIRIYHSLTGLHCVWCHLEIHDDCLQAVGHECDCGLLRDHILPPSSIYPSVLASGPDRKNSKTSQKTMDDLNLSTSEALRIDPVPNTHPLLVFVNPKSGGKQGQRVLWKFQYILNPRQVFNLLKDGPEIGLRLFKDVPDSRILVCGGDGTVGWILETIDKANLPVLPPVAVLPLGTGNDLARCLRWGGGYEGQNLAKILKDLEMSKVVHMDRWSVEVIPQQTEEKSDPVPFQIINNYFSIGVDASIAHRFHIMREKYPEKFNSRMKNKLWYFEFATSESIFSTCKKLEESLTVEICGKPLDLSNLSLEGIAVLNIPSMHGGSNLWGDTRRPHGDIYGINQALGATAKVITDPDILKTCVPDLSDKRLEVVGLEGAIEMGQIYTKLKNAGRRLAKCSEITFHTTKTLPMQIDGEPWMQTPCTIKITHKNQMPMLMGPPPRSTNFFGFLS
Kindly supply the reported IC50 values for the records listed here.
Provide a numeric answer, followed by its unit.

compound	assayTarget	reportedMetric	observedResult
CCO[C@H]1CN(c2cc(=O)n(C)c3ccc(C#N)nc23)CC[C@@H]1OCc1ccc(OC(C)C)cn1 [Example 383]	Human DGKα(9-727) (Homo sapiens (Human), UniProt P23743)	IC50	6.1 µM
CC(C)O[C@@H]1CN(c2cc(=O)n(C)c3ccc(C#N)nc23)CC[C@H]1Oc1cccc(C(F)(F)F)c1 (relative stereo) [Example 395]	Human DGKα(9-727) (Homo sapiens (Human), UniProt P23743)	IC50	0.32 µM

Okay, now this compound:
// recorded IC50 for CN(C)CCO[C@@H]1CN(c2cc(=O)n(C)c3ccc(C#N)nc23)CC[C@H]1Oc1cccc(C(F)(F)F)c1 [Example 385] : 100 µM

src = patent US11964973B2
